Origin of values: patent US6627408B1

Biological target: A. nidulans bimC motor domain (Emericella nidulans, UniProt P17120)
Sequence (P17120 81-416 limits assumed): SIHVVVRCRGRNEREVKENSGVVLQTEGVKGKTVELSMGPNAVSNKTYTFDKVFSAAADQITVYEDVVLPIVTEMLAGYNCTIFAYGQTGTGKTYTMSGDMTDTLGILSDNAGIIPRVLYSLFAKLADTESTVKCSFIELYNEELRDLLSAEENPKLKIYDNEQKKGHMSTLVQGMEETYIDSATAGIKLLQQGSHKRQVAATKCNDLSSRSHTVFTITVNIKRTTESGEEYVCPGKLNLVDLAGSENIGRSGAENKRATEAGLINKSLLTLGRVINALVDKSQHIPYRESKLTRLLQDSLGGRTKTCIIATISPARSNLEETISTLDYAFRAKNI
Recorded Metric: IC50 (µM)
Your answer should be a plain number; it is taken to be in µM.

Query IC50 for `O=C1OC(c2ccco2)=N/C1=C\c1ccc(Br)s1`
25
